System: PC-3M (Prostate)
Test: Antiproliferative assay, PC-3M
Type: cell-based, human
Conditions: 3 d exposure, mean ± SD, read-out: IC50 for growth inhibition
endpoint: pIC50
Give only the number. pIC50 is defined as minus log10 of concentration in molar units.

Challenge: What value of pIC50 has been recorded for this entry: C/C(=C\c1csc(C)n1)[C@@H]1C[C@@H]2O[C@]2(C)CCC[C@H](C)[C@H](O)[C@@H](C)C(=O)C(C)(C)[C@@H](O)CC(=O)O1
Response given: 8.42
